# target.or.system: CDK4/cyclin D3 (Homo sapiens, UniProt P11802)
# Construct: made in house; host or cells: insect cells (baculovirus co-infection)
# Sequence (P11802 whole entry): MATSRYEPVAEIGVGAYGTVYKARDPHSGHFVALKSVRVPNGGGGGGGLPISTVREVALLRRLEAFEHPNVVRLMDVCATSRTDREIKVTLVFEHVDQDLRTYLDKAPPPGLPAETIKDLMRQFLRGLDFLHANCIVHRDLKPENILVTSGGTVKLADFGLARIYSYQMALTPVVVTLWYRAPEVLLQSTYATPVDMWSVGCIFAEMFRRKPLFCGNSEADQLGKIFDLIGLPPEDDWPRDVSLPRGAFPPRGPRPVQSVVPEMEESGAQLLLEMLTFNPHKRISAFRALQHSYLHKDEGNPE
# Sequence (P30281 1-264 partner limits assumed): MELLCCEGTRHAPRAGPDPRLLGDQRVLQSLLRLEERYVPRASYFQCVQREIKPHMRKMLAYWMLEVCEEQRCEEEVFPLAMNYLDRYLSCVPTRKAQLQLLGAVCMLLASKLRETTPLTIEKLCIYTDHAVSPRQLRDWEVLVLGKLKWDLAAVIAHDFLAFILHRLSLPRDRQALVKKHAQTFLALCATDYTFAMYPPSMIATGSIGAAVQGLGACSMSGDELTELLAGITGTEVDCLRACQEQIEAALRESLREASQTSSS
# assay.info: Inhibition of CDK4/Cyclin D retinoblastoma kinase activity;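 for % Inhib CDK4/D @ 1 μM: relative to DMSO control wells without compound minus no-enzyme background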
# Type: biochemical
# condition.parameters: test compound at 1 μM (head line shifted: 'mM' printed beside 'Structure'); 1 µM
test.readout: % Inhib CDK4/D @ 1 μM (%)
Write the value in % as a bare number.

# molecule, quantity.unit, obs.value
rows = [
    ("Nc1nc(Nc2ccc(S(=O)(=O)CC3CNC(=O)O3)cc2)sc1C(=O)c1c(Cl)cccc1Cl (stereo not shown) [DD(169)]", "%", 36.4),
    ("Nc1nc(Nc2ccc(S(=O)(=O)CCN3CCCC3)cc2)sc1C(=O)c1c(Cl)cccc1Cl [DD(207)]", "%", 36.8),
    ("CC(C)OC(=O)CS(=O)(=O)c1ccc(Nc2nc(N)c(C(=O)c3c(Cl)cccc3Cl)s2)cc1 [DD(183)]", "%", 1.9),
    ("Nc1nc(Nc2ccc(S(=O)(=O)CC(=O)Nc3ccccc3)cc2)sc1C(=O)c1c(Cl)cccc1Cl [DD(175)]", "%", 12.4),
]

[ask] GET /values?readout=% Inhib CDK4/D @ 1 μM&system=CDK4/cyclin D3 (Homo sapiens, UniProt P11802)&item= Nc1nc(Nc2ccc(S(=O)(=O)CCO)cc2)sc1C(=O)c1c(Cl)cccc1Cl [DD(229)]
[reply] 3.5

[ask] Please provide the recorded % Inhib CDK4/D @ 1 μM for Nc1nc(Nc2ccc(S(=O)(=O)Cc3ncon3)cc2)sc1C(=O)c1c(Cl)cccc1Cl [DD(208)] , tested on CDK4/cyclin D3 (Homo sapiens, UniProt P11802).
[reply] 47.8

[ask] API: value(readout= % Inhib CDK4/D @ 1 μM, system= CDK4/cyclin D3 (Homo sapiens, UniProt P11802), query= CCOC(=O)CCS(=O)(=O)c1ccc(Nc2nc(N)c(C(=O)c3c(Cl)cccc3Cl)s2)cc1 [DD(222)] )
[reply] −11

====

Recorded log10(Ki) for the following compounds
# target.or.system: CDK4/cyclin D3 (Homo sapiens)
# assay.info: Inhibition of CDK4/Cyclin D retinoblastoma kinase activity
# condition.parameters: apparent Ki, Rb fragment substrate
# Method: Cyclin-dependent kinase activity was measured by quantifying the enzyme-catalyzed, time-dependent incorporation of radioactive phosphate from [^32P]ATP or [^33P]ATP into a protein substrate. […] The phosphorylated substrate was then captured on a nitrocellulose or phosphocellulose membrane using a 96-well filtration manifold, and unincorporated radioactivity was removed by repeated washing with 0.85% phosphoric acid. Radioactivity was quantified by exposing the dried membranes to a phosphorimager. […]
All values: base-10 log of Ki in nM.

Recorded log10(Ki), per entry:
# compound, log10(Ki)
records = [
    ("Nc1nc(Nc2ccc(S(=O)(=O)NCc3cc(Cl)ccc3Cl)cc2)sc1C(=O)c1c(F)cccc1F", 1.79),
    ("Nc1nc(Nc2ccc(S(=O)(=O)NCCc3cccs3)cc2)sc1C(=O)c1c(F)cccc1F", 1.23),
    ("Cc1ccsc1C(=O)c1sc(Nc2ccc(S(N)(=O)=O)cc2)nc1N [C(48)*, reference compound]", 1.28),
    ("Nc1nc(Nc2ccc(S(=O)(=O)NCc3cc4ccccc4o3)cc2)sc1C(=O)c1c(F)cccc1F", 0.71),
]

[ask] # get_value(readout='log10(Ki)', item= CC1CCCCN1CCCNS(=O)(=O)c1ccc(Nc2nc(N)c(C(=O)c3c(F)cccc3F)s2)cc1 (centres unmarked) )
[reply] 0.92

Recorded values, source patent US20040176431A1.
